Listed here: items and their measured apparent IC50, human ASIC1 current, Q-Patch.
- SYSTEM_NAME: T1, human ASIC1 (human, UniProt P78348 1-528)
- T1 sequence: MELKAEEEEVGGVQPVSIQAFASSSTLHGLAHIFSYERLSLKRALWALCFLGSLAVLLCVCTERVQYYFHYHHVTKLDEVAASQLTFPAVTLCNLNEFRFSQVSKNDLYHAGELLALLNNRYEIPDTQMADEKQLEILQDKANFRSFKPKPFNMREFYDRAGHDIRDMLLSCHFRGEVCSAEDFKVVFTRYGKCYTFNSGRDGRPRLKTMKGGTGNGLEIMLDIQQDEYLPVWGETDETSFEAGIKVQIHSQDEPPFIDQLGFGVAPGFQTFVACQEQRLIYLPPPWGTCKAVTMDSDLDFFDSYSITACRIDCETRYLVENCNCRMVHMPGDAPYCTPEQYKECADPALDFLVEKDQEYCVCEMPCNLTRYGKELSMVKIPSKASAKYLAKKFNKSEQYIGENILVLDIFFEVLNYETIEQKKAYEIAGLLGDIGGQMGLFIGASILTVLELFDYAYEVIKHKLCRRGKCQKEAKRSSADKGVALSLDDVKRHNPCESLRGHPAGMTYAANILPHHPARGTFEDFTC
- ASSAY_DETAILS: cell-based or functional assay

Tell me the measured apparent IC50, human ASIC1 current, Q-Patch of H1M7101N (antibody, mouse IgG1, V domains shown) VH: EVQLLASGGGLVQTGGSLRLSCAASGFTFSSFAMSWVRQAPGKGLEWVSGISGSGGSTYYADSVKGRFTISRDNSKNTLYLQMNSLRAEDTAAYYCAKEAYKWQPWGQGIRVTVSS VL: DIQMTQSPSTLSASVGDRVTITCRASQSISSWLAWYQQKPGKAPNLLIYKTSNLESGVPSRFSGSGSGTEFTLTISSLQPDDFATYYCQQYNSYSYTFGQGTKLEIK , please.
< 1 nM
